# Tested system: hERG (KCNH2) (Homo sapiens, UniProt Q12809)
# Sequence (Q12809 whole entry): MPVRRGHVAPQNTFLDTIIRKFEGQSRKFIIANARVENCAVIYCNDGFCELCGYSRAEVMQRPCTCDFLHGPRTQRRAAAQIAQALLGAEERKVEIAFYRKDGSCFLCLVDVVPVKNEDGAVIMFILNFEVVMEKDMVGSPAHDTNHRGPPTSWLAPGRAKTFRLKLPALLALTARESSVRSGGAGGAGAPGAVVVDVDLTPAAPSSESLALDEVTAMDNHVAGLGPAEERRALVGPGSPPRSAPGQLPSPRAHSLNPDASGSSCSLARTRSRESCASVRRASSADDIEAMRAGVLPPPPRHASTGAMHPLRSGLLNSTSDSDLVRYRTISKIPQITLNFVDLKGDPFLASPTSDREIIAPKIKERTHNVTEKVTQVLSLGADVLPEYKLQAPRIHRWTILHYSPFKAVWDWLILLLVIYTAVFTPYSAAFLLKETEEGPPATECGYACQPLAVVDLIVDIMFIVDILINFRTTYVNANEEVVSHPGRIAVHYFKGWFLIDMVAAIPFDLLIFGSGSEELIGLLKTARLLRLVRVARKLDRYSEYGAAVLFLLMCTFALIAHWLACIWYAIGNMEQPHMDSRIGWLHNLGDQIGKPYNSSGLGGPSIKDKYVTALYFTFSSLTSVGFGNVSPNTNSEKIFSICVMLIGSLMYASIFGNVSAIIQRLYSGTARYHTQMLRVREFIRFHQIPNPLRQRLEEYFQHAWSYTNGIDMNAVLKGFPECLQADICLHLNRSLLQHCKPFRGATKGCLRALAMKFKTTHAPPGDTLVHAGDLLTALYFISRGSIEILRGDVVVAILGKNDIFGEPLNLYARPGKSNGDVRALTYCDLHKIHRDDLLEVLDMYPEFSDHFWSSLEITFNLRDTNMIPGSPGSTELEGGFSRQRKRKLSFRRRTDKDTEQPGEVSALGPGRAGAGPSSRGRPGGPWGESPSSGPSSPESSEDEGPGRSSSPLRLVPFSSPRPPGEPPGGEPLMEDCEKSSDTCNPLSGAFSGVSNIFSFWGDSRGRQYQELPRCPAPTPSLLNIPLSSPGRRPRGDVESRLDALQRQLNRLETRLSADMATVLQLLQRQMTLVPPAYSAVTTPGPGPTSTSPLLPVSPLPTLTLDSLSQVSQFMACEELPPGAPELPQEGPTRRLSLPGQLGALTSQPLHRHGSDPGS
# Procedure text: Inhibition of human ERG expressed in HEK293 cells at 10 uM by patch-clamp technique relative to control
# Assay type: cell-based
# Conditions: HEK293 cells that express hERG
Could you label it MET if measured inhibition at 10 µM is 40% or higher, and NOT MET otherwise?

>>> answer_label("N#Cc1ccc(Nc2ncc(C(F)(F)F)c(NCCCNCCO)n2)cn1")
"NOT MET"
>>> answer_label("CS(=O)(=O)CCNCCCNc1nc(Nc2ccc(C#N)nc2)ncc1C(F)(F)F")
"MET"
>>> answer_label("CNC(C)CCNc1nc(Nc2ccc(C#N)nc2)ncc1C(F)(F)F (stereo not given)")
"NOT MET"
>>> answer_label("N#Cc1ccc(Nc2ncc(C(F)(F)F)c(N[C@H]3CC[C@H](N)CC3)n2)cn1")
"MET"
>>> answer_label("N#Cc1ccc(Nc2ncc(C(F)(F)F)c(NC[C@H]3CNCCO3)n2)cn1")
"NOT MET"
>>> answer_label("N#Cc1ccc(Nc2ncc(C(F)(F)F)c(N[C@H]3CCCNC3)n2)cn1")
"MET"
>>> answer_label("N#Cc1ccc(Nc2ncc(C(F)(F)F)c(NCCCN)n2)cn1")
"MET"
>>> answer_label("CNc1nc(Nc2cnc(C#N)c(N[C@@H]3CCCNC3)c2)ncc1C(F)(F)F")
"MET"
>>> answer_label("CNCCCNc1nc(Nc2ccc(C#N)nc2)ncc1C(F)(F)F")
"MET"
